For each record, write down the corresponding cytotoxicity at 70.5 h.
Assay: Human HepG2 cell viability assay in 384 well format
Type: toxicity, cell-based
Set-up: dose 125 nL, time 70.5 hour; concentration not given beside the values
Details: HepG2 cells, read-out: Inhibition
Give the figure together with its unit, number first.

Look over these answered cases.
MOLECULE | cytotoxicity at 70.5 h
CN(C)c1ccc(C(=O)N2CCCC(n3cncn3)C2)nn1 (configuration not stated) | -5.16%
CCn1ccnc1CN1CCN(CCc2ccncc2)CC1C (configuration not stated) | 7.35%
COCCN(CC(F)F)c1cc(C(F)(F)F)nc2ncnn12 | -7.29%

List reported cytotoxicity at 70.5 h for each of these molecules:
1. CN(C)CCN(Cc1ccsc1)C(=O)C1=NNC(=O)CC1
2. COCCCN(CCOC)C(=O)Nc1ccccc1Br
3. Cn1cnc2c1C(COCC1CCOCC1)CN(C1CCOCC1)C2 (configuration not stated)
4. Fc1ccc(-c2noc(C3COCCO3)n2)cc1F (configuration not stated)
5. CCS(=O)(=O)N1CCOC2(CCCN(c3ncc(F)cn3)C2)C1 (configuration not stated)
6. Cn1cc(C2CCCN2C(=O)CCn2c(=O)oc3ccccc32)cn1 (configuration not stated)
7. CC(C)CC(=O)N1CCc2nc(N3CCOCC3)nc(NC(C)C)c2C1

Output line:
1: -9.01%; 2: -15.2%; 3: -25.6%; 4: -1.66%; 5: -4.67%; 6: -2.42%; 7: -15.8%

List reported cytotoxicity at 70.5 h for each of these molecules:
1. CCCc1n[nH]c(C2CN(C(=O)c3cc(C4CC4)on3)CCO2)n1 (configuration not stated)
2. NC1(CNC(=O)c2cc3ccccc3[nH]2)CCCC1

Output line:
1: -10.9%; 2: 16%

----------
Assay: Human HepG2 cell viability assay in 384 well format
Assay type: toxicity, cell-based
Set-up: dose 125 nL, time 70.5 hour; concentration not given beside the values
Conditions: HepG2 cells, read-out: Inhibition
For each record, write down the corresponding cytotoxicity at 70.5 h.
Numbers only, in %.

List reported cytotoxicity at 70.5 h for each of these compounds:
1. Cc1ccc(CN2CCN(CC(=O)Nc3ccc4nsnc4c3)CC2)o1
2. CC(c1ncc(C(C)(C)C)o1)N1CCN(Cc2ccco2)CC1 (stereo not drawn)
3. CSCc1cccc(S(=O)(=O)N2CCCCC2)c1
4. c1cc(CNCc2cccc3c2OCCCO3)cc(Cn2cncn2)c1
5. CSCc1cccc(S(=O)(=O)NCc2cnn(C)c2C)c1
6. Cc1nn(C)c(C)c1C1CCCN1C(=O)c1cc(C(N)=O)cs1 (stereo not drawn)

Output line:
-5.71
-5.45
-6.14
-8.37
-2.3
-6.04

List reported cytotoxicity at 70.5 h for each of these compounds:
1. Cc1nc(N(C)C)nc(-c2cccc(-c3ccn(CCCF)n3)c2)c1C
2. COc1ncccc1CN1C[C@H](C(=O)N2CCCO2)[C@@H]2CCO[C@@H]2C1
3. Cc1csc(N2CCN(C(=O)c3cc(Cl)c[nH]3)CC2)n1

Output line:
1. -10.9
2. -6.23
3. -0.933

List reported cytotoxicity at 70.5 h for each of these compounds:
1. O=C(NCC1CC1)c1n[nH]c2c1CNCC2
2. Cc1ccc(N2CCc3sc(C(=O)N4CCOCC4)cc32)nn1
3. COc1ncccc1CN1C[C@@H]2OCCN(CCN(C)C)[C@@H]2C1

Output line:
1: -10.7; 2: 2.34; 3: -3.67

List reported cytotoxicity at 70.5 h for each of these compounds:
1. Cc1ccc(C(C(=O)N2CCC(Cc3noc(C)n3)CC2)N(C)C)cc1 (stereo not drawn)
2. CCc1ccc(C(=O)N2CCCC2c2nnc3n2CCCCC3)o1 (stereo not drawn)
3. Cc1nc(C(NC(=O)CC(F)(F)F)c2ccc(Cl)cc2)no1 (stereo not drawn)
4. Cc1noc(C)c1CNC(=O)N(C1CC1)C(C)c1ccco1 (stereo not drawn)

Output line:
[-8.55, 3.58, -2.37, -3.98]

List reported cytotoxicity at 70.5 h for each of these compounds:
1. N#Cc1cc(Cn2cnc(C3CCC3)cc2=O)ccc1F
2. Fc1ccc(CN2CCC(c3n[nH]c4ncccc34)CC2)cc1F
3. COCCCC1(CO)CCCN(CCc2ccccn2)C1 (stereo not drawn)
4. CC(C)CCNC(=O)NC(C)c1nncn1C (stereo not drawn)

Output line:
-15.4
22.2
0.702
22

List reported cytotoxicity at 70.5 h for each of these compounds:
1. Cc1cc(C2CCCN2C(=O)CN2C(=O)OC(C)(C)C2=O)on1 (stereo not drawn)
2. CC(C)CC(=O)Nc1ccc2c(c1)ncn2CC(=O)NCCN(C)C
3. O=C(CNC1(CCO)CCOCC1)Nc1ccc(F)cc1F

Output line:
1: -2.6; 2: -6.17; 3: 10.9

List reported cytotoxicity at 70.5 h for each of these compounds:
1. Cc1cccc(C(C)(C)NC(=O)CS(=O)(=O)CC(C)C)c1
2. Cc1cc(C)cc(C(=O)Nc2ccc(CC3CC(=O)NC3=O)cc2)c1 (stereo not drawn)
3. N#Cc1nccnc1N1CCC(COCc2ccccc2)C1 (stereo not drawn)
4. CC(C#N)CSc1ccccc1NCC(=O)NCc1cccs1 (stereo not drawn)
5. Cc1nc(NCc2ccco2)nc2c1COCC21CCNC1 (stereo not drawn)
6. C[C@@H]1CN(C(=O)CCN2CCCC2)CC[C@@]1(O)C1CCOCC1
7. Cc1ccc(NC2(C(=O)NCCCc3c(C)n[nH]c3C)CCCC2)cc1
8. Oc1cc(-c2nccs2)nc(C2CCN(Cc3cccs3)CC2)n1

Output line:
1: -4.98; 2: -1.28; 3: -4.27; 4: 0.858; 5: -8.24; 6: -6.69; 7: -5.19; 8: -8.93

List reported cytotoxicity at 70.5 h for each of these compounds:
1. CCc1c(C(=O)N2CCC3(CCCN(CCO)C3=O)C2)csc1C (stereo not drawn)
2. Cc1cc(C(=O)NCc2ccccn2)no1

Output line:
1: 6.16; 2: -6.09

----------
For each record, write down the corresponding cytotoxicity at 70.5 h.
Assay: Human HepG2 cell viability assay in 384 well format
Assay type: toxicity, cell-based
Design: dose 125 nL, time 70.5 hour; concentration not given beside the values
Conditions: HepG2 cells, read-out: Inhibition
Answers are plain numbers, in %.

COMPOUND | cytotoxicity at 70.5 h [%]
Cc1noc(COCC(=O)N2CCCC(c3nccs3)C2)n1 (configuration not stated) | -6.88
CN(Cc1ccc2c(c1)OCCO2)C(=O)Cn1ccccc1=O | -5.02
COc1nc2c(cc1C(=O)NC(C)Cc1cc(C)n[nH]1)CCC2 (configuration not stated) | -12
CCN(CC)C(=O)[C@@H]1C[C@@H](N)CN1c1nc(N(C)C)nc(C)c1C | 2.56
CCc1ccc(C2CC(=O)Nc3c2c(=O)n(C)c2ncnn32)cc1 (configuration not stated) | -2.98

List reported cytotoxicity at 70.5 h for each of these compounds:
1. COc1ccc2cc(NC(=O)CCNc3nc(C)cc(C)n3)cnc2c1
2. CN(C)C(=O)CN1CCO[C@H]2CN(c3ccccn3)C[C@H]21
3. O=C(NCCc1c[nH]cn1)c1ccc2c(c1)C(=O)N(C1CC1)C2=O
4. CC(=O)N1CC(C)CN(C(=O)c2cscn2)c2ccccc21 (configuration not stated)
5. CC(C)(C)Cc1noc2ncc(C(=O)N3CCCSCC3)cc12

Output line:
[-24.1, -3.6, 3.29, 2.08, 11.1]

----------
For each record, write down the corresponding cytotoxicity at 70.5 h.
Assay: Human HepG2 cell viability assay in 384 well format
Format: toxicity, cell-based
Set-up: dose 125 nL, time 70.5 hour; concentration not given beside the values
Conditions: HepG2 cells, read-out: Inhibition
One number for each entry, in %.

Look over these answered cases.
COMPOUND | cytotoxicity at 70.5 h, %
Cn1cc(C2CCCN2C(=O)CCCc2cccs2)cn1 (stereo unspecified) | -12.4
Cc1nc(C(C)(C)C)sc1C(=O)NCCn1cccn1 | -0.966
CS(=O)(=O)N1CCC(Oc2ccc(C#N)cc2)CC1 | 7.19

List reported cytotoxicity at 70.5 h for each of these compounds:
1. COc1cccc(CCC(=O)Nc2c(C)nn(C)c2C)c1OC
2. Cc1csc2c(=O)n3c(nc12)CCN(C(=O)c1ccccn1)CC3
3. Cc1ccc(C(=O)N2CC[C@H]3[C@H]2CCN3CC2CCOCC2)cc1F

Output line:
1. -10.8
2. -0.0193
3. 3.15

----------
For each record, write down the corresponding cytotoxicity at 70.5 h.
Assay: Human HepG2 cell viability assay in 384 well format
Assay type: toxicity, cell-based
Set-up: dose 125 nL, time 70.5 hour; concentration not given beside the values
Conditions: HepG2 cells, read-out: Inhibition
Give bare numbers, in %.

MOLECULE | VALUE_OBSERVED
CN1CC(C(=O)NCCc2ccn(-c3ccc(F)cc3)n2)CC1=O (stereo not drawn) | -9.34
Cc1ccc(CN2CCOC3(COCCN(C(C)C)C3)C2)o1 (stereo not drawn) | -12.3
Cn1cc(C(=O)N[C@@H]2CN(Cc3ccc(F)cc3)[C@@H]3CCCO[C@@H]32)cn1 | -4.56
COc1ccc(CNC(=O)NC2CCN(c3ccccc3)C2=O)cc1 (stereo not drawn) | -4.11
O=C1COC2(CCN(c3ncccn3)CC2)CN1c1ccsc1 | -4.75

List reported cytotoxicity at 70.5 h for each of these molecules:
1. N#Cc1cccc(C(=O)N2CC[C@H]3[C@H]2CCN3CC2CC2)c1
2. CCOCCNC(=O)c1cc(COc2cncc(Cl)c2)on1
3. O=C(N[C@@H]1CN(Cc2ccc3[nH]ccc3c2)C[C@H]1O)c1cscn1
4. CCN1CCN(C(=O)C2CCOC2)c2ccccc21 (stereo not drawn)
5. CC1=Nc2c(c(=O)[nH]n2C(C)C)C(c2cccs2)S1 (stereo not drawn)
6. Cc1nc(C2CCCN(C(=O)c3ccc(Cl)cn3)C2)no1 (stereo not drawn)
7. CC(C)Oc1ncccc1CNC(=O)NC(C)c1cccs1 (stereo not drawn)
8. Cc1csc(CN2CCC[C@]3(C[C@@H](OCC4CC4)CO3)C2)n1

Output line:
1: 19.2; 2: -0.86; 3: 19.9; 4: 21; 5: -8.68; 6: -5.54; 7: -21; 8: 24.4

List reported cytotoxicity at 70.5 h for each of these molecules:
1. CNS(=O)(=O)CC1CCCN1C(=O)c1ccc(C)c(C)c1 (stereo not drawn)
2. Cc1cc(CNC2CCCN(Cc3noc(C4CC4)n3)C2)on1 (stereo not drawn)
3. COc1cccc(CSc2nnc(C)n2CC(N)=O)c1
4. CCS(=O)(=O)N1CCC2(CC1)CC(CC(=O)NC1CC1)c1ccccc12 (stereo not drawn)

Output line:
1. 25.9
2. 23.9
3. -98.4
4. 17.6
